Biological target: MDMX (Homo sapiens, UniProt O15151)
Sequence (O15151 1-125): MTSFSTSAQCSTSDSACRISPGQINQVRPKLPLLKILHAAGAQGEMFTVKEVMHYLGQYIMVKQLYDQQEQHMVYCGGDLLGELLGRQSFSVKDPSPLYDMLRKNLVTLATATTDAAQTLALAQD
Assay: Competitive fluorescence polarization assay for MDMX
Assay type: binding
Conditions: competitive FP assay, read-out: Ki (MDMX)
Where a SMILES comes first, the peptide text is derived from it. Bridges are numbered along the chain shown (N, C = ends). [ ]: non-standard residue; d: D form. R8 = C=CCCCCCC[C@@](C)(N)C(=O)O; Cba = N[C@@H](CC1CCC1)C(=O)O; S5 = C=CCCC[C@](C)(N)C(=O)O; Aib = CC(C)(N)C(=O)O
Reported Ki values follow for various molecules

1) CCCC[C@H](NC(=O)[C@H](C)NC(=O)[C@H](C)NC(=O)[C@]1(C)CCCC=CCCCCCC[C@@](C)(NC(=O)[C@H](Cc2ccccc2)NC(=O)[C@@H](NC(=O)[C@H](CC(C)C)NC(C)=O)[C@@H](C)O)C(=O)N[C@@H](C)C(=O)N[C@@H](Cc2ccc(O)cc2)C(=O)N[C@@H](Cc2c[nH]c3ccccc23)C(=O)N[C@@H](C)C(=O)N[C@@H](CCC(N)=O)C(=O)N[C@@H](CC(C)C)C(=O)N1)C(=O)N[C@@H](C)C(=O)N[C@H](C)C(N)=O (single isomer, unassigned) ... 10 to 100 nM
2) CC(=O)N[C@@H](CC(C)C)C(=O)N[C@H](C(=O)N[C@@H](Cc1ccccc1)C(=O)N[C@]1(C)CCCCCCCCCCC[C@@](C)(C(=O)N[C@@H](CO)C(=O)N[C@@H](C)C(=O)N[C@@H](C)C(N)=O)NC(=O)[C@H](CC2CCC2)NC(=O)[C@H](CCC(N)=O)NC(=O)[C@H](C)NC(=O)[C@H](Cc2c[nH]c3ccccc23)NC(=O)[C@H](Cc2ccc(O)cc2)NC(=O)[C@H](CCC(=O)O)NC1=O)[C@@H](C)O ... 10 to 100 nM
3) CC(=O)N[C@@H](CC(C)C)C(=O)N[C@H](C(=O)N[C@@H](Cc1ccccc1)C(=O)N[C@]1(C)CCCCCCC=CCCC[C@@](C)(C(=O)N[C@@H](CO)C(=O)N[C@@H](C)C(=O)N[C@@H](Cc2ccccc2)C(=O)N[C@@H](C)C(N)=O)NC(=O)[C@H](CC2CCC2)NC(=O)[C@H](CCC(N)=O)NC(=O)[C@H](C)NC(=O)[C@H](Cc2c[nH]c3ccccc23)NC(=O)[C@H](Cc2ccc(O)cc2)NC(=O)[C@H](CCC(=O)O)NC1=O)[C@@H](C)O [compound 242] (Ac-LTF[R8]EYWAQ[Cba][S5]SAFA-NH2; staple 4-11) ... 10 to 100 nM
4) CSCC[C@H](NC(=O)[C@H](C)NC(=O)[C@H](CO)NC(=O)[C@]1(C)CCCC=CCCCCCC[C@@](C)(NC(=O)[C@H](Cc2ccccc2)NC(=O)[C@@H](NC(=O)[C@H](CC(C)C)NC(C)=O)[C@@H](C)O)C(=O)N[C@@H](C)C(=O)N[C@@H](Cc2ccc(O)cc2)C(=O)N[C@@H](Cc2c[nH]c3ccccc23)C(=O)N[C@@H](C)C(=O)N[C@@H](CCC(N)=O)C(=O)N[C@@H](CC(C)C)C(=O)N1)C(N)=O [compound 5] (Ac-LTF[R8]AYWAQL[S5]SAM-NH2; staple 4-11) ... 10 to 100 nM
5) CCCC[C@H](NC(=O)[C@H](C)NC(=O)[C@H](C)NC(=O)[C@]1(C)CCCC=CCCCCCC[C@@](C)(NC(=O)[C@H](Cc2ccccc2)NC(=O)[C@@H](NC(=O)[C@H](CC(C)C)NC(C)=O)[C@@H](C)O)C(=O)N[C@@H](C)C(=O)N[C@@H](Cc2ccc(O)cc2)C(=O)N[C@@H](Cc2c[nH]c3ccccc23)C(=O)N[C@@H](C)C(=O)N[C@@H](CCC(N)=O)C(=O)N[C@@H](CCC(C)C)C(=O)N1)C(=O)N[C@@H](C)C(=O)N[C@@H](C)C(N)=O ... 100 to 1000 nM
6) CCCC[C@H](NC(=O)[C@H](C)NC(=O)[C@H](C)NC(=O)[C@]1(C)CCCC=CCCCCCC[C@@](C)(NC(=O)[C@H](Cc2ccccc2)NC(=O)[C@@H](NC(=O)[C@H](CC(C)C)NC(C)=O)[C@@H](C)O)C(=O)N[C@@H](C)C(=O)N[C@@H](Cc2ccc(O)cc2)C(=O)N[C@@H](Cc2c[nH]c3ccccc23)C(=O)N[C@@H](C)C(=O)N[C@@H](CCC(N)=O)C(=O)N[C@@H](CC(C)C)C(=O)N1)C(=O)N(C)CC(N)=O (single isomer, unassigned) ... < 10 nM
7) CC(=O)N[C@@H](CC(C)C)C(=O)N[C@H](C(=O)N[C@@H](Cc1ccccc1)C(=O)N[C@]1(C)CCCCCCC=CCCC[C@@](C)(C(=O)N[C@@H](C)C(=O)N[C@@H](C)C(=O)NC(C)(C)C(=O)N[C@@H](C)C(=O)N[C@@H](C)C(=O)N[C@H](C)C(N)=O)NC(=O)[C@H](CC(C)C)NC(=O)[C@H](CCC(N)=O)NC(=O)[C@H](C)NC(=O)[C@H](Cc2c[nH]c3ccccc23)NC(=O)[C@H](Cc2ccc(O)cc2)NC(=O)[C@H](CCC(=O)O)NC1=O)[C@@H](C)O [compound 563] (Ac-LTF[R8]EYWAQL[S5]AA[Aib]AA[dA]-NH2; staple 4-11) ... 10 to 100 nM

*Q* So what Ki did CCCC[C@H](NC(=O)[C@H](C)NC(=O)[C@H](C)NC(=O)[C@]1(C)CCCC=CCCCCCC[C@@](C)(NC(=O)[C@H](Cc2ccccc2)NC(=O)[C@@H](NC(=O)[C@H](CC(C)C)NC(C)=O)[C@@H](C)O)C(=O)N[C@@H](C)C(=O)N[C@@H](Cc2ccc(O)cc2)C(=O)N(C)[C@@H](Cc2c[nH]c3ccccc23)C(=O)N[C@@H](C)C(=O)N[C@@H](CCC(N)=O)C(=O)N[C@@H](CC(C)C)C(=O)N1)C(=O)N[C@@H](C)C(N)=O (single isomer, unassigned) get with MDMX (Homo sapiens, UniProt O15151)?
*A* > 1000 nM

###

target: MDMX (Homo sapiens); experiment: Competitive fluorescence polarization assay for MDMX; assay type: binding; conditions: competitive FP assay, read-out: Ki (MDMX)
Where a SMILES comes first, the peptide text is derived from it. Bridges are numbered along the chain shown (N, C = ends). [ ]: non-standard residue; d: D form. R8 = C=CCCCCCC[C@@](C)(N)C(=O)O; Chg = N[C@H](C(=O)O)C1CCCCC1; hLeu = CC(C)CC[C@H](N)C(=O)O; S5 = C=CCCC[C@](C)(N)C(=O)O; Ac3c = NC1(C(=O)O)CC1
Reported Ki values follow for various compounds

Look over these answered cases.
1) CC(=O)N[C@@H](CC(C)C)C(=O)N[C@H](C(=O)N[C@@H](Cc1ccccc1)C(=O)N[C@]1(C)CCCCCCC=CCCC[C@@](C)(C(=O)N[C@@H](CO)C(=O)N[C@H](C(=O)NCC(N)=O)C(C)C)NC(=O)[C@H](CC(C)C)NC(=O)[C@H](CCC(N)=O)NC(=O)[C@H](C)NC(=O)[C@H](Cc2c[nH]c3ccccc23)NC(=O)[C@H](Cc2ccc(O)cc2)NC(=O)[C@H](C)NC1=O)[C@@H](C)O [compound 123] (Ac-LTF[R8]AYWAQL[S5]SVG-NH2; staple 4-11) ... 10 to 100 nM
2) CCCC[C@H](NC(=O)[C@H](C)NC(=O)[C@H](C)NC(=O)[C@]1(C)CCCC=CCCCCCC[C@@](C)(NC(=O)[C@H](Cc2ccccc2)NC(=O)[C@@H](NC(=O)[C@H](CC(C)C)NC(C)=O)[C@@H](C)O)C(=O)N[C@@H](C)C(=O)N[C@@H](Cc2ccc(O)cc2)C(=O)N[C@@H](Cc2c[nH]c3ccccc23)C(=O)N[C@@H](C)C(=O)N[C@@H](CCC(N)=O)C(=O)N[C@@H](CC(C)C)C(=O)N1)C(=O)N[C@@H](C)C(=O)NCCC(C)(C)C (single isomer, unassigned) ... 10 to 100 nM
3) CC(=O)N[C@@H](Cc1ccccc1)C(=O)N[C@]1(C)CCCCCCC=CCCC[C@@](C)(C(=O)N[C@@H](C)C(=O)N[C@@H](C)C(=O)N[C@H](C(N)=O)C2CCCCC2)NC(=O)[C@H](CC(C)C)NC(=O)C2(CC2)NC(=O)[C@H](CCC(=O)O)NC(=O)[C@H](Cc2c[nH]c3ccccc23)NC(=O)[C@H](Cc2ccc(O)cc2)NC(=O)[C@H](C)NC1=O [compound 20] (Ac-F[R8]AYWE[Ac3c]L[S5]AA[Chg]-NH2; staple 2-9) ... 10 to 100 nM
4) CC(=O)N[C@@H](CC(C)C)C(=O)N[C@H](C(=O)N[C@@H](Cc1ccccc1)C(=O)N[C@]1(C)CCCCCCC=CCCC[C@@](C)(C(=O)N[C@@H](CO)C(=O)N[C@@H](C)C(=O)N[C@@H](C)C(N)=O)NC(=O)[C@H](CC2CCC2)NC(=O)[C@H](CCC(N)=O)NC(=O)[C@H](C)NC(=O)[C@H](Cc2c[nH]c3ccccc23)NC(=O)[C@H](Cc2ccc(C(=O)O)cc2)NC(=O)[C@H](CCC(=O)O)NC1=O)[C@@H](C)O (single isomer, unassigned) ... < 10 nM

// switching to the query compound
*Q* GET /values?readout=Ki&item= CC(=O)N[C@@H](CC(C)C)C(=O)N[C@H](C(=O)N[C@@H](Cc1ccccc1)C(=O)N[C@]1(C)CCCCCC/C=C/CCC[C@@](C)(C(=O)N[C@@H](CO)C(=O)N[C@@H](C)C(=O)N[C@@H](C)C(N)=O)NC(=O)[C@H](CCC(C)C)NC(=O)[C@H](CCC(N)=O)NC(=O)[C@H](C)NC(=O)[C@H](Cc2c[nH]c3ccccc23)NC(=O)[C@H](Cc2ccc(O)cc2)NC(=O)[C@H](C)NC1=O)[C@@H](C)O [compound 115] (Ac-LTF[R8]AYWAQ[hLeu][S5]SAA-NH2; staple (E) 4-11)
*A* 10 to 100 nM
